For Serratia marcescens, measured MIC is reported for the entries below.

Recorded results for 5 molecules are shown here.
molecule	MIC
Cn1nnnc1SCC1=C(C(=O)O)N2C(=O)C(NC(=O)C(NC(=O)N3CCNC3=O)c3ccccc3)[C@H]2SC1 (stereo partly shown) [Test Compound D]	70 µg/mL
Cn1nnnc1SCC1=C(C(=O)O)N2C(=O)C(NC(=O)C(NC(=O)NC(N)=O)c3ccccc3)C2SC1 (stereo not shown) [Test Compound H]	> 200 µg/mL
CNC(=O)N(C)C(=O)NC(C(=O)NC1C(=O)N2C(C(=O)O)=C(CSc3nnnn3C)CSC12)c1ccccc1 (stereo not shown) [Test Compound F]	22 µg/mL
CC(=O)OCC1=C(C(=O)O)N2C(=O)C(NC(=O)C(NC(=O)N3CCNC3=O)c3ccccc3)[C@H]2SC1 (stereo partly shown) [Test Compound E]	42 µg/mL
CNC(=O)NC(=O)NC(C(=O)NC1C(=O)N2C(C(=O)O)=C(CSc3nnnn3C)CSC12)c1ccccc1 (stereo not shown) [Test Compound J]	130 µg/mL

Ask | MIC for CNC(=O)NC(=O)NC(C(=O)NC1C(=O)N2C(C(=O)O)=C(CSc3nnnn3C)CSC12)c1cccs1 (stereo not shown) [Test Compound I] ?
Reply | 35 µg/mL

Ask | MIC for CNC(=O)NC(=O)NC(C(=O)NC1C(=O)N2C(C(=O)O)=C(CSc3nnc(C)s3)CSC12)c1ccc(O)cc1 (stereo not shown) [Test Compound L] ?
Reply | > 200 µg/mL
